test system: SK-MEL-28 melanoma; experiment: NCI-60 one-dose screen, 48 h; conditions: 10 µM unless noted
This is part of a sample that, as a whole, favours compounds with a hit. Of some 83,000 tested, about 20% had one in any assay. Activity calls are given as the source filed them. How the source made its calls: active means growth percent below 10; inactive means the rest.
Field 'call' accepts active, inactive

For orientation, consider the following solved cases.
Tell me the assay call for `COc1cc(C=Nc2cc(Cl)cc(Cl)c2)ccc1N(CCCl)CCCl` please.
inactive

Subsequent entry: `CC(=O)O[C@H]1C(=O)[C@@]2(C)[C@H]([C@H](OC(=O)c3ccccc3)[C@]3(O)C[C@H](OC(=O)[C@H](OC(=O)OC[C@H]4COC(C)(C)O4)[C@@H](NC(=O)c4ccccc4)c4ccccc4)C(C)=C1C3(C)C)[C@]1(OC(C)=O)CO[C@@H]1C[C@@H]2O`
inactive

Then this molecule: `CCCC[C@H](NC(=O)[C@H]1CCCN1C)C(=O)N(C)[C@H](C[C@@H](OC(C)=O)c1nc(C(=O)N[C@@H](Cc2ccccc2)C[C@H](C)C(=O)OCC)cs1)C(C)C`
inactive

Queued: `c1cnc2[nH]cc(-c3csc(-c4cn(CCCCN5CCOCC5)c5ccccc45)n3)c2c1`
active

Try `COC(=O)[C@@H](C)C[C@H](Cc1ccccc1)NC(=O)c1csc([C@@H](C[C@H](C(C)C)N(C)C(=O)[C@@H](NC(=O)[C@H]2CCCN2C)C2CC2)OC(C)=O)n1` next.
inactive

More entries:
Hi, sorry to bother you, what did the test record for O=C(CC1(O)C(=O)Nc2ccc(Br)cc21)c1ccc(C(=O)NCC2CCC3(CC2)OOC2(CCCCC2)OO3)cc1 (configuration not stated) ?
inactive

Entry `Nc1c(F)cc(-c2nc3cc(F)ccc3[se]2)cc1F` please
inactive

And `OCc1ccc2c(c1)OCO2` ?
inactive

Let us now turn to `COc1ccc(/C=C\c2cc(OC)c(OC)c(OC)c2)c(NS(=O)(=O)c2ccc(Cl)cc2)c1O`
inactive

###

test system: SK-MEL-28 melanoma; test: NCI-60 one-dose screen, 48 h; settings: 10 µM unless noted
The panel holds about 83,000 compounds, 20% with a hit somewhere; the sample as a whole holds those more often. The source made the active and inactive calls. How the source made its calls: active means growth percent below 10; inactive means the rest.
Hello, when you answer, please use one of the following outcomes: t for active, f for inactive

Record excerpt, results attached:
Would you mind telling me which call this test gave `O=C(CCCCCCC(=O)Nc1ccc(N(CCCl)CCCl)cc1)NO` ?
f

Try this compound too: `CN(CCCCN(C)CCOS(C)(=O)=O)CCOS(C)(=O)=O`
f

Also need CCC1CN1CCCCN1CC1CC (centres undefined) , thanks.
f

Same question for O=C1C=C(N2C3C4CCC(C4)C32)C(=O)C=C1c1ccccc1 (centres undefined) please.
f

Another compound: `Nc1ccc2c(c1)Cc1cc(Br)ccc1-2`
f

Do the same for `COC(=O)[C@@H](C)C[C@H](Cc1ccccc1)NC(=O)c1csc([C@@H](C[C@H](C(C)C)N(C)C(=O)[C@@H](NC(=O)C23CC(NC(C)=O)(C2)C3)C2CC2)OC(C)=O)n1` please
f

With those in mind, consider the next compound.
Dear all, I need the recorded test outcome for CC(=O)OC1CCC2C3CCC4=C/C(=N/OC(=O)c5ccc(N(CCCl)CCCl)cc5)CCC4(C)C3CC(C)C12 (centres undefined) , thank you.
f

###

test system: MOLT-4 leukemia; experiment: NCI-60 one-dose screen, 48 h; conditions: 10 µM unless noted
This is part of a sample that, as a whole, favours compounds with a hit. Of some 83,000 tested, about 20% had one in any assay. The source made the active and inactive calls. The calls were made as follows: active = growth percent below 10; inactive = the rest.
Answer with one of the outcomes yes (1) for active, no (0) for inactive

Check the results log: what was the call for `CC(=O)OCC1O[C@@H]([S-])C(OC(C)=O)[C@H](OC(C)=O)[C@@H]1OC(C)=O.[Au+].c1ccc(CN2[CH-]N(Cc3ccccc3)C(c3ccccc3)=C2c2ccccc2)cc1` ?
no (0)

Next compound up: O=C1C2C(C(=O)[N]1[Hg][c]1ccccc1)C1(Cl)C(Cl)=C(Cl)C2(Cl)C1(Cl)Cl (stereo not drawn)
yes (1)

Then `COc1cccc2c1c(C(=O)C(=O)Nc1cc(C)no1)cn2Cc1ccc(F)cc1` ?
no (0)

###

tested on: MOLT-4 leukemia; assay: NCI-60 one-dose screen, 48 h; details: 10 µM unless noted
This is part of a sample that, as a whole, favours compounds with a hit. Of some 83,000 tested, about 20% had one in any assay. Calls of active or inactive are those of the source. The calls were made as follows: active = growth percent below 10; inactive = the rest.
The reply should be one of these categories: true = active, false = inactive

In this assay, the call recorded for `c1ccc(CSC(c2ccccc2)c2ccccc2)cc1` was what?
false

###

tested on: OVCAR-3 ovarian; test: NCI-60 one-dose screen, 48 h; details: 10 µM unless noted
This is part of a sample that, as a whole, favours compounds with a hit. Of some 83,000 tested, about 20% had one in any assay. Active and inactive are the calls of the source. Rule for the calls: active = growth percent below 10; inactive = the rest.
Classes to choose from: YES for active, NO for inactive

Known results for compounds:
Write down the call the test reported for this compound. Item: CC[C@H](C)[C@H](NC(=O)C12C3C4C1C1C2C3C41NC)C(=O)N(C)[C@H](C[C@@H](OC(C)=O)c1nc(C(=O)N[C@@H](Cc2ccccc2)C[C@H](C)C(=O)OC)cs1)C(C)C (stereo not given in full)
YES

Queued: `O=C(N/N=C/c1ccc(N(CCCl)CCCl)cc1)c1cccc2ccccc12`
NO

For `C[C@@]12CC=C3c4nc(Nc5cccc(O)c5)sc4CC[C@]3(C)[C@H]1CC[C@]1(C)C(=O)CC[C@@H]21` then?
YES

***
Test call for this compound, please: Cc1ccc2c(C(C[N+](=O)[O-])c3cccs3)c(-c3ccccc3)[nH]c2c1 (stereo not given)
NO

Okay, and `Cc1sc2c(c1C)C(c1ccc(Cl)cc1)=N[C@@H](CC(=O)OC(C)(C)C)c1nnc(C)n1-2` ?
NO

###

test system: DU-145 prostate; assay: NCI-60 one-dose screen, 48 h; conditions: 10 µM unless noted
Compounds without any hit were thinned out: in the full panel of roughly 83,000, 20% have a hit. Active and inactive are the calls of the source. The calls were made as follows: active = growth percent below 10; inactive = the rest.
Hi! Could you answer with just one of these? class 1 for active, class 0 for inactive

Reference set (5 entries):
Outcome logged for COC(C(=O)[C@@H](O)[C@@H](C)O)[C@@H]1Cc2cc3cc(O[C@H]4C[C@@H](O[C@H]5C[C@@H](O)[C@H](O)C(C)O5)[C@H](O)C(C)O4)c(C)c(O)c3c(O)c2C(=O)[C@H]1O[C@H]1C[C@@H](O[C@H]2C[C@@H](O[C@H]3C[C@@H](O)[C@@H](O)C(C)O3)[C@@H](O)C(C)O2)[C@H](O)C(C)O1 (stereo partly specified) in this assay:
class 0

Same question, `CC1=C(O)[C@@](C)(CCCCC[C@H](C)CCCCc2ccc(O)cc2)OOC1=O` this time
class 0

What would you report for `CC(C)[C@]12O[C@H]1[C@@H]1O[C@]13[C@]1(O[C@H]1C[C@H]1c4c(C(=O)c5ccccc5)oc(OC(=O)c5ccccc5)c4CC[C@@]13C)[C@@H]2O` ?
class 1

Next entry: `COC(=O)[C@@H](C[C@H](Cc1ccccc1)NC(=O)c1csc([C@@H](C[C@H](C(C)C)N(C)C(=O)[C@@H](NC(=O)[C@H]2CCCCN2C)C(C)C)OC(C)=O)n1)NC(=O)OCc1ccccc1`
class 1

Next compound up: `COc1cc(/C=C/[N+](=O)[O-])cc(OC)c1`
class 1

More entries:
Status in this test for CN1CCC(O)(c2ccc(F)cc2)C(C(=O)c2ccc(F)cc2)C1 (stereo unspecified) ?
class 0

Repeat with COc1cc(C=C2c3ccccc3C(=O)c3ccccc32)ccc1OCCCCOc1cc2c(cc1OC)C(=O)N1CCCC1C=N2 (stereo unspecified)
class 1

###

Items are presented alongside their recorded growth.
system: IGROV1 ovarian; experiment: NCI-60 one-dose screen, 48 h (100 = growth as untreated, 0 = no growth, -100 = all killed); conditions: 10 µM unless noted
Compounds without any hit were thinned out: in the full panel of roughly 83,000, 20% have a hit.
Numeric answer only, unit % assumed.

Some molecules with recorded growth:
Tell me the measured growth of O=C(O)C1C(C(=O)O)C2(Cl)C(Cl)=C(Cl)C1(Cl)C2(Cl)Cl.[Hg] (stereo not drawn) , please.
74.8

Item: `COC(=O)[C@@H](C)C[C@H](Cc1ccccc1)NC(=O)c1csc([C@@H](C[C@H](C(C)C)N(C)C(=O)[C@@H](NC(=O)[C@H]2CCCCN2C)c2ccc(F)cc2)OC(C)=O)n1`
27

How about NC(=O)c1c(Br)n(C2OC(CO)C(O)C2O)c2ncnc(N)c12 (stereo not drawn) ?
-48.3

Request: `Fc1ccc(N2COOC3(OOC2)C2CC4CC(C2)CC3C4)cc1`
16.5

Queued: `Cc1ccc(S(=O)(=O)C(Cl)(Cl)Cl)cc1`
99

One more molecule: `CCOC(=O)CCN(C)C1=Nc2ccc(Cl)cc2C(c2ccccc2)=[N+]([O-])C1`
107

Would you kindly repeat that for `C=CC1=C[C@@H]2[C@@H]3O[C@]4(CC[C@H](O4)[C@@H](C)C[C@@H](O)C3=O)C[C@H](O)C3=NCC[C@@]32CC1` ?
-28.4

Then this molecule: N#Cc1c(Br)n(C2OC(CO)C(O)C2O)c2ncnc(N)c12 (stereo not drawn)
-35.1

Entry to check: `CC(C)=CCC[C@H](C(=O)O)[C@@H]1CC[C@]2(C)C3=C(CC[C@@]12C)[C@@]1(C)CC[C@H](O)C(C)(C)[C@@H]1CC3`
103

Note, next up: `O=P(N1CC1)(N1CC1)N1CCc2ccccc21`
130

***
Any idea what its growth is? The molecule is `C[C@]12CCc3nc(Nc4ccccc4F)sc3C1=CC[C@@H]1[C@@H]2CC[C@]2(C)C(=O)CC[C@@H]12`
61.8

Input `CN(CCCCN(C)CCOS(C)(=O)=O)CCOS(C)(=O)=O`
65.8

Try this molecule next: `CC(=O)O[C@H](C[C@H](C(C)C)N(C)C(=O)[C@@H](NC(=O)[C@H]1CCCCN1C)C(C)C)c1nc(C(=O)N[C@@H](Cc2ccccc2)C[C@H](C)C(=O)O)c(CCOCc2ccccc2)s1`
10.7

And what about the molecule CN1CCC(O)(c2ccc(F)cc2)C(C(=O)c2ccc(F)cc2)C1 (stereo not drawn) ?
96.3

Also need COc1cc(/C=N/C2=C(C#N)C(c3ccco3)c3c(c4cc(C)ccc4oc3=O)O2)cc(OC)c1OC (stereo not drawn) , thanks.
83.1

Continue with `CC(=O)OC[C@]1(C)C=C2C(=O)[C@](C)(O)C3(CC3)C(C)=C2[C@H]1OC(=O)N(C)CCN(C)C(=O)OC(C)(C)C`
1.75
